Test: in vitro
Conditions: human, CEM cells (lymphoblastic cell line)
Returns: string. Value is 1 if measured IC50 at 5 day is below 5 µM, and 0 if it is greater than or equal to it.

1) O=C(CN1c2c(n[nH]c2-c2cccc(Cl)c2)-c2ccccc2S1(=O)=O)NN=Cc1ccccc1[N+](=O)[O-] :: 0
2) CN(C)c1ccc(C=NNC(=O)CN2c3c(n[nH]c3-c3cccc(Cl)c3)-c3ccccc3S2(=O)=O)cc1 :: 1
3) O=C(CN1c2c(n[nH]c2-c2cccc(Cl)c2)-c2ccccc2S1(=O)=O)NN=Cc1ccc(C(=O)O)cc1 :: 0
4) O=C(CN1c2c(n[nH]c2-c2cccc(Cl)c2)-c2ccccc2S1(=O)=O)NN=Cc1cccc([N+](=O)[O-])c1 :: 0
5) COC(=O)CN1C(C(=O)c2cccc(Cl)c2)=C(O)c2ccccc2S1(=O)=O :: 0
6) O=C(CN1c2c(n[nH]c2-c2cccc(Cl)c2)-c2ccccc2S1(=O)=O)NN=Cc1ccc(Cl)cc1Cl :: 0
7) O=C(CN1c2c(n[nH]c2-c2cccc(Cl)c2)-c2ccccc2S1(=O)=O)NN=Cc1ccc(Cl)cc1 :: 1
8) O=C(CN1c2c(n[nH]c2-c2cccc(Cl)c2)-c2ccccc2S1(=O)=O)NN=Cc1ccc([N+](=O)[O-])cc1 :: 1
